# Tested on: PAM 212 keratinocytes
# Experimental protocol: PAM 212 keratinocyte growth inhibition (photo-toxicity with UVA / dark-toxicity without light)
# Format: cell-based
# Condition: Mus musculus, PAM212, light or radiation study; UVA 320-400 nm, 1.28 J/cm2, growth 4-5 days
Structures can show the parent of a compound that is named as a salt.
Threshold check on IC50: strictly below 2 µM is Y; on or above 2 µM is N.

> print(dat)
                                    compound  class.label
 1  Cc1cc(=O)oc2c(C)c3c(cc12)CC(CN1CC(C)OC(C)C1)O3 (centres unmarked)            Y
 2  Cc1cc(=O)oc2c(C)c3c(cc12)CC(CN(C)C)O3 (centres unmarked) [R = H, T = dimethyl amino iodide salt, Hydroiodide Salt]            Y
 3  Cc1c(F)c(=O)oc2c(C)c3c(cc12)CC(CI)O3 (centres unmarked)            N
 4  Cc1c(Br)c(=O)oc2c(C)c3c(cc12)CC(CI)O3 (centres unmarked)            Y
 5  Cc1c(Br)c(=O)oc2c(C)c3c(cc12)CC(C[n+]1ccccc1)O3 (centres unmarked) [R = Br, T = pyridinium iodide salt]            Y
 6  Cc1cc(=O)oc2c(C)c3c(cc12)CC(CN(CCO)CCO)O3 (centres unmarked)            Y
 7  Cc1cc(=O)oc2c(C)c3c(cc12)CC(C)O3 (centres unmarked) [R = H, T = H, reference compound]            Y
 8  Cc1cc(=O)oc2c(C)c3c(cc12)CC(CN1CCOCC1)O3 (centres unmarked)            N
 9  Cc1c(C#N)c(=O)oc2c(C)c3c(cc12)CC(C[n+]1ccccc1)O3 (centres unmarked) [R = CN, T = pyridinium iodide salt]            N
10  Cc1c(C#N)c(=O)oc2c(C)c3c(cc12)CC(CI)O3 (centres unmarked)            N
11  Cc1cc(=O)oc2c(C)c3c(cc12)CC(CI)O3 (centres unmarked)            Y
12  Cc1c(I)c(=O)oc2c(C)c3c(cc12)CC(CI)O3 (centres unmarked)            N
13  Cc1cc(=O)oc2c(C)c3c(cc12)CC(C[n+]1ccccc1)O3 (centres unmarked) [R = H, T = pyridinium iodide salt]            Y
14  Cc1c(Br)c(=O)oc2c(C)c3c(cc12)CC(CN1C(=O)c2ccccc2C1=O)O3 (centres unmarked)            N
